Known growth of a selection of compounds
Tested on: PC-3 prostate
TEST_DESCRIPTION: NCI-60 one-dose screen, 48 h (100 = growth as untreated, 0 = no growth, -100 = all killed)
CONDITION_SET: 10 µM
This is part of a sample that, as a whole, favours compounds with a hit. Of some 83,000 tested, about 20% had one in any assay. Activity calls are given as the source filed them. How the source made its calls: active means growth percent below 10; inactive means the rest.

Solved cases below.
OC(CCN1CCCC1)(c1ccccc1)C1CCCCC1 (centres undefined): 98.6% (inactive)
COc1cc(-c2nn(-c3cccc(NC(=O)NCCNC(=O)c4cccc(C(F)(F)F)c4)c3)cc2-c2ccncc2)ccc1Cl: 17.6% (inactive)
Cc1[nH]c2ccccc2c1/C=N/Nc1ncnc2sc3c(c12)CCN(CC(=O)OC(C)(C)C)C3: 69.2% (inactive)

Input: For the compound "COc1cc(-c2nn(-c3cccc(NC(=O)NCCNC(=O)c4ccccc4)c3)cc2-c2ccncc2)ccc1Cl" , what growth is on record?
Output: 6.41% (active)

Input: For the compound "COc1ccc(-c2nn(-c3cccc(Cl)c3)cc2-c2cc(-c3cccs3)[nH]c(=S)n2)cc1" , what growth is on record?
Output: 48.5% (inactive)

Input: For the compound CCN(CC)CCCC(C)Nc1c2ccc(Cl)cc2nc2ccc(OC)cc12 (centres undefined) , what growth is on record?
Output: 35% (inactive)

Input: For the compound COc1ccc(/C=C2\CCCC3=C2N=C2SC(C)=CN2C3c2ccc(OC)cc2)cc1 (centres undefined) , what growth is on record?
Output: 99.9% (inactive)

Input: For the compound "O=C1/C=C/[C@@H](O)[C@@H]2C[C@@H](O)C[C@H]2/C=C/CCC[C@H](CCc2ccc(C(F)(F)F)cc2)O1" , what growth is on record?
Output: 8.76% (active)

Input: For the compound OCC1OC(n2cnc3c(NCc4ccco4)ncnc32)C(O)C1O (centres undefined) , what growth is on record?
Output: 22% (inactive)

* * *

Test system: HCT-15 colon
TEST_DESCRIPTION: NCI-60 one-dose screen, 48 h (100 = growth as untreated, 0 = no growth, -100 = all killed)
CONDITION_SET: 10 µM
Compounds without any hit were thinned out: in the full panel of roughly 83,000, 20% have a hit.
READOUT_TYPE: growth (%)
All answers are understood in %, so give the number only.

Solved cases below.
COc1cc(C2CC(c3ccc4c(c3)OCO4)=NN2c2ccccc2)cc(OC)c1OC (stereo not given): 81
O=C(CSc1nccc(Nc2cccc3ccccc23)n1)c1ccc(Cl)cc1: 101
O=C(CC(CC(=O)c1ccccc1)c1ccccc1O)c1ccccc1: 96.5
COc1cc(C(=O)n2nc(-c3cc(OC)c(OC)c(OC)c3)nc2N)cc(OC)c1OC: 100

Input: For HCT-15 colon, provide growth of "Cc1n[nH]c(C)c1N=Nc1cccc2c1C(=O)c1ccccc1C2=O" please.
Output: 78.4

* * *

System: COLO 205 colon
TEST_DESCRIPTION: NCI-60 one-dose screen, 48 h
CONDITION_SET: 10 µM
Procedure: Cells are grown in 96 well plates and exposed to the test compound for 48 hours. Compounds are tested at a single concentration, which is 10^-5 M for most compounds. The reported endpoint is percent growth (GI% or GIPRCNT), where numbers from 0 - 100% represent growth inhibition, and numbers from -100% - 0 represent cell death. For example, a value of 40 represents 60% growth inhibition. A value of 0 means no net growth occurred over the course of the experiment. […]
About 83,000 compounds went through this panel and 20% of them were active in at least one assay; those are over-represented in the sample as a whole. Active and inactive are the calls of the source. Rule for the calls: active = growth percent below 10; inactive = the rest.
Hi! Could you answer with just one of these? TRUE (active), FALSE (inactive)

Please review the following examples before continuing.
O[C@@H]1CO[C@H]2[C@@H]1OC[C@@H]2O: FALSE
COc1ccc(C(=O)N2C=Cc3ccccc3C2C#N)cc1 (stereo not given): FALSE
CS(=O)(=O)c1nccc(-c2c(-c3cccc(O)c3)nc3sccn23)n1: FALSE
O=[N+]([O-])c1cc(Cl)cc(Cl)c1O: FALSE
CCC(=O)OC1CCC2C3CCC(=O)OC3C(C)(CCC(=O)O)CC12C (stereo not given): FALSE

Input: Per the records of this test, what outcome belongs to "CN(C)CCOc1ccc(-c2nc3sccn3c2-c2ccnc(S(C)(=O)=O)n2)cc1" ?
Output: FALSE

Input: Per the records of this test, what outcome belongs to "O=C(COc1cccc(/C=C2\CSc3ccccc3C2=O)c1)c1ccc(Cl)cc1" ?
Output: FALSE

Input: Per the records of this test, what outcome belongs to "Cc1c(C(N)=O)sc2c1c(=O)n(Cc1ccccc1)c1nnc(-c3ccc(Br)cc3)n21" ?
Output: FALSE

Input: Per the records of this test, what outcome belongs to "Cc1cc(Cl)ccc1Nc1nc(C(F)(F)F)ccc1C(=O)N/N=C/c1cccc(O)c1" ?
Output: FALSE

Input: Per the records of this test, what outcome belongs to "NNC(=O)Oc1c(Cl)cc(Cl)cc1[N+](=O)[O-]" ?
Output: FALSE

Input: Per the records of this test, what outcome belongs to CCc1cc(Cl)c(OC)c(C(=O)NCC2CCCN2CC)c1O (stereo not given) ?
Output: FALSE

Input: Per the records of this test, what outcome belongs to Cc1ccc(C2NC(=S)N3C(c4ccc(C)cc4)NC(=S)N23)cc1 (stereo not given) ?
Output: FALSE

Input: Per the records of this test, what outcome belongs to "Nc1cc(-c2ccncc2)c[nH]c1=O" ?
Output: FALSE

Input: Per the records of this test, what outcome belongs to "Cc1ccc(/C=C/C(=O)C(=O)/C=C/c2ccc(C)cc2)cc1" ?
Output: FALSE

Input: Per the records of this test, what outcome belongs to "CC(=O)COc1ccc(Cl)cc1Cl" ?
Output: FALSE

Input: Per the records of this test, what outcome belongs to COc1ccc(C(c2ccc(OCCN(C)C)cc2)c2cc3ccccc3c3ccccc23)cc1 (stereo not given) ?
Output: TRUE

Input: Per the records of this test, what outcome belongs to "CN(C)CCCOc1ccccc1NC1=C(Cl)C(=O)C(Nc2ccccc2OCCCN(C)C)=C(Cl)C1=O" ?
Output: TRUE

Input: Per the records of this test, what outcome belongs to "Cc1ccc(C)c(COc2cc(NC(=O)c3ccc4c(c3)OCO4)ccc2N(C)S(C)(=O)=O)c1" ?
Output: TRUE

Input: Per the records of this test, what outcome belongs to NC(CSC(c1ccccc1)(c1ccccc1)c1cccc2ccccc12)C(=O)O (stereo not given) ?
Output: FALSE

Input: Per the records of this test, what outcome belongs to CCCCN(CCCC)C(=O)[C@H](CC)[C@@H]1CC[C@@H](C)[C@@H]([C@H](C)[C@@H](O)[C@@H](C)C(=O)[C@H](CC)C2O[C@]3(C=C[C@@H](O)[C@]4(CC[C@@](C)([C@H]5CC[C@](O)(CC)[C@H](C)O5)O4)O3)[C@H](C)C[C@@H]2C)O1 (stereo not given in full) ?
Output: TRUE

* * *

Tested on: PC-3 prostate
TEST_DESCRIPTION: NCI-60 one-dose screen, 48 h (100 = growth as untreated, 0 = no growth, -100 = all killed)
CONDITION_SET: 10 µM
Compounds without any hit were thinned out: in the full panel of roughly 83,000, 20% have a hit.
READOUT_TYPE: growth (%)
All answers are understood in %, so give the number only.

O=C(CCl)Oc1ccc(OC(=O)CCl)cc1: 89.4
C[C@]12CCC3c4ccc(O)cc4C[C@@H](CCCCCCCCCS(=O)CCCC(F)(F)C(F)(F)F)C3C1CC[C@@H]2O (some centres not stated): 52.5
c1ccc(CSc2ncccc2-c2nnc(SCCN3CCOCC3)o2)cc1: 111
CCn1cc(C(=O)O)c(=O)c2cc(F)c(N3CCNCC3)cc21: 102
CC(=O)N[C@H](C(=O)N[C@@H](CCCNC(=N)N)C(=O)N[C@@H](CCCCN)C(=O)N[C@@H](CCCNC(=N)N)C(=O)N[C@]1(C)CCCCCC/C=C\CCC[C@@](C)(C(=O)N[C@@H](CCCNC(=N)N)C(=O)N[C@@H](CCC(=O)O)C(=O)N[C@@H](CC(C)C)C(=O)N[C@H](C(=O)N[C@@H](CCC(=O)O)C(N)=O)C(C)C)NC(=O)[C@H](CCC(N)=O)NC(=O)[C@H](CC(C)C)NC(=O)[C@H](CC(C)C)NC(=O)[C@H](CCCNC(=N)N)NC(=O)[C@H](CCCNC(=N)N)NC(=O)[C@H](CC(C)C)NC1=O)C(C)C: -4.64

Input: For the compound "O=C(O)c1ccc(-n2cc(CNc3ccc(Oc4ccccc4)cc3)c(-c3ccccc3)n2)cc1" , what growth is on record?
Output: 96

Input: For the compound "Cc1ccc(NC(=S)NNC(=S)Nc2ccc(C)cc2)cc1" , what growth is on record?
Output: 77.2
